assayed-target: TFEB (Homo sapiens, UniProt P19484)
Sequence (P19484 1-476): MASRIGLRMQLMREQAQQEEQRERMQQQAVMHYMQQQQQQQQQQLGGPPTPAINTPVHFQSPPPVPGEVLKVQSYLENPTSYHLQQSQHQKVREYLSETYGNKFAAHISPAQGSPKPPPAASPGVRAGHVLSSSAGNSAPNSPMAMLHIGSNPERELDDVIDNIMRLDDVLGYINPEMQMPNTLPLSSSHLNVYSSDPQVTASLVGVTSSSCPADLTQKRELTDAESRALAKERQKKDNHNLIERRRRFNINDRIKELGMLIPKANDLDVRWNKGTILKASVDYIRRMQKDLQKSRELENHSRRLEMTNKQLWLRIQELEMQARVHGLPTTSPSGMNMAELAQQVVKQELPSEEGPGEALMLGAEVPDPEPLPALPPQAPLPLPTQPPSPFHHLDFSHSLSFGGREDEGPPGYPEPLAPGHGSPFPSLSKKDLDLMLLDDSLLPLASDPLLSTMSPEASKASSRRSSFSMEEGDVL
assay-remarks: Tfeb-Translocation Assay HEK-293T-oEX-Tfeb-GFP Cell Line
Assay type: cell-based
condition-notes: HEK-293T-oEX-TFEB-GFP cells; translocation positive cells ratio; read-out: TFEB Translocation EC50
Recorded EC50 for the following compounds

>  <compound>
Cc1nc2ccn(Cc3ccccc3)c(=O)c2cc1C(=O)NCc1cccnc1

>  <assay-readout>
EC50

>  <obs-value>
100 to 1000 nM

$$$$
>  <compound>
Cc1nc(CNC(=O)c2cc3c(=O)n(Cc4ccc(Cl)cc4)ccc3nc2C)co1

>  <assay-readout>
EC50

>  <obs-value>
< 100 nM

$$$$
>  <compound>
Cc1nc2ccn(Cc3ccccn3)c(=O)c2cc1C(=O)NCc1ccccn1

>  <assay-readout>
EC50

>  <obs-value>
1000 to 10000 nM

$$$$
>  <compound>
Cc1ncc(CNC(=O)c2cc3c(=O)n(Cc4ccccc4)ccc3nc2C)o1

>  <assay-readout>
EC50

>  <obs-value>
100 to 1000 nM

$$$$

For Cc1nc2ccn(Cc3ccccc3)c(=O)c2cc1C(=O)NCc1ccccn1 , what is its reported EC50?
100 to 1000 nM

If you can, please state the reported EC50 value of Cc1nc2ccn(Cc3ccc(Cl)c(F)c3)c(=O)c2cc1C(=O)NCc1ccccn1 .
< 100 nM

Which EC50 is reported for this compound? Cc1ccc(CNC(=O)c2cc3c(=O)n(Cc4ccccc4)ccc3nc2C)cc1
100 to 1000 nM

Would you mind telling me what EC50 value was observed for Cc1nc2ccn(Cc3ccccc3)c(=O)c2cc1C(=O)NCc1cccs1 ?
100 to 1000 nM

Name the recorded EC50 for Cc1nc2ccn(Cc3ccccc3)c(=O)c2cc1C(=O)NCc1cnn(C)c1 .
100 to 1000 nM

EC50 for Cc1nc2ccn(CC3CCO3)c(=O)c2cc1C(=O)NCc1ccc(Cl)cc1 (stereo not shown) ?
1000 to 10000 nM

Which EC50 value is on record for Cc1nc2ccn(Cc3ccccc3)c(=O)c2cc1C(=O)NCc1ncccn1 ?
≥ 10000 nM

Look at this compound and give its reported EC50. Cc1nc(CNC(=O)c2cc3c(=O)n(Cc4ccccc4)ccc3nc2C)co1
100 to 1000 nM

Any idea what its EC50 is? The compound is COCCn1ccc2nc(C)c(C(=O)NCc3ccc(Cl)cc3)cc2c1=O
1000 to 10000 nM
